method: chemical genetic growth profiling, strain panel (AID 1159580);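 note: tested at 20 µM; growth read once vehicle control cultures reached saturation at 30 °C; 1 = growth at the plate median or of vehicle wells; lower values mean less growth of the strain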
condition_parameters: S. cerevisiae deletion strains, growth OD, locus YIL125W, strain kgd1, stronger effect = lower value
Screen size: about 5,500 compounds; about 2,000 (36%) were called active. About 18% were inconclusive and are not listed. Some of the results follow. Where a SMILES comes first, the peptide text is derived from it. [ ]: non-standard residue; d: D form. Orn = NCCC[CH](N)C(=O)O
endpoint_name: normalized growth

Below: 5 compounds and their reported normalized growth.
# compound, experimental_value
data = [
    ("Cc1cc(C(C)(C)C)c(O)c(C)c1CC1=NCCN1", "1 (inactive)"),
    ("O=C(O)c1cc(=O)c2cccc(O)c2[nH]1", "0.975 (inactive)"),
    ("CC(C)CC1NC(=O)C(CCCN)NC(=O)C(C(C)C)NC(=O)C2CCCN2C(=O)C(Cc2ccccc2)NC(=O)C(CC(C)C)NC(=O)C(CCCN)NC(=O)C(C(C)C)NC(=O)C2CCCN2C(=O)C(Cc2ccccc2)NC1=O (centres undefined) (cyclo(FPV[Orn]LFPV[Orn]L); configuration not given here)", "1 (inactive)"),
    ("O=c1c(O)c(-c2ccc(O)c(O)c2)oc2cc(O)ccc12", "0.967 (inactive)"),
    ("CCOC([O-])=Nc1c[n+](N2CCOCC2)no1", "1 (inactive)"),
]

Q: Annotate the compound `NC[C@H]1O[C@H](O[C@H]2[C@H](O)[C@@H](O[C@H]3O[C@H](CO)[C@@H](O)[C@H](N)[C@H]3O)[C@H](N)C[C@@H]2N)[C@H](N)C[C@@H]1O` with its measured normalized growth.
A: 1 (inactive)

Q: Output normalized growth of `COc1cccc(OC)c1C(=O)N[C@@H]1C(=O)N2[C@@H]1SC(C)(C)[C@@H]2C(=O)O`
A: 0.988 (inactive)

Q: Let me know recorded normalized growth for COC(=O)C[C@H]1C(C)(C)[C@@H](O)[C@@H]2CC3=C4C=C(OC)O[C@@H](c5ccoc5)[C@]4(C)CCC3[C@@]1(C)C2=O (some centres undefined) , thanks.
A: 0.991 (inactive)

====

method: chemical genetic growth profiling, strain panel (AID 1159580);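 note: tested at 20 µM; growth read once vehicle control cultures reached saturation at 30 °C; 1 = growth at the plate median or of vehicle wells; lower values mean less growth of the strain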
condition_parameters: S. cerevisiae deletion strains, growth OD, locus YOR184W, strain ser1, stronger effect = lower value
Hit rate of the full screen: of about 5,500 compounds, about 2,000 (36%) were called active. Inconclusive results (about 18%) are left out. The list shows a part of the results.
Entries annotated with measured normalized growth
// return just the number, without any unit appended

// worked examples, normalized growth included
# input_smiles, endpoint_name, experimental_value
data = [
    ("O=c1oc2c(O)c(O)cc3c(=O)oc4c(O)c(O)cc1c4c23", "normalized growth", 0.538),
    ("O=C(CCc1ccc(O)cc1)c1c(O)cc(O)cc1O[C@@H]1O[C@H](CO)[C@@H](O)[C@H](O)[C@H]1O", "normalized growth", 1.03),
    ("COc1cc(-c2coc3cc(O[C@@H]4O[C@H](CO)[C@@H](O)[C@H](O)[C@H]4O)c(OC)c(O)c3c2=O)cc(O)c1OC", "normalized growth", 1.05),
    ("CCOc1cccc(C(=O)c2ccc(O)c(O)c2O)c1", "normalized growth", 0.812),
]

Proceeding to the next molecule to report its normalized growth.
Q: Write down normalized growth measured for item `Cc1c(NC(=O)c2cccnc2)c(=O)n(-c2ccccc2)n1C`
A: 0.985
